- Procedure Text: High Content Imaging Cell-Based qHTS for Inhibitors of the mTORC1 Signaling Pathway in MEF Cells (AID 2667)
- Experimental Parameters: series mostly up to 38.3 µM
Records with an inconclusive call do not appear. Activity calls are given as the source filed them. Calls follow the shape of the dose curve; as a rule, active = well fitted inhibition curve with a large enough effect; inconclusive = small, poorly fitted or top-dose-only effect, or effect the other way; inactive = no such curve, though single readings can be large or run the other way.
Classes used: class 1 = active, class 0 = inactive

Compound: O=C1NC(=O)c2cc(Nc3ccccc3)c(Nc3ccccc3)cc21
Classification: class 0
--
Compound: CCCCCCCC/C=C\CCCCCCCC(=O)NCCc1ccc(O)c(O)c1
Classification: class 1
--
Compound: O=C(O)CCC/C=C\C[C@@H]1[C@@H](/C=C/[C@H](O)C2Cc3ccccc3C2)[C@@H](F)C[C@@H]1O
Classification: class 0
--
Compound: O=C(O)c1ccccc1Nc1ccccc1
Classification: class 0
--
Compound: O=[N+]([O-])c1cccc2cn[nH]c12
Classification: class 0
--
Compound: N#C/C(=C\c1ccc(O)c(O)c1)C(=O)NCCCNC(=O)/C(C#N)=C/c1ccc(O)c(O)c1
Classification: class 0
--
Compound: O=C(O)[C@H]1NCCC[C@H]1C(=O)O
Classification: class 0
--
Compound: CCCn1c(=O)c2[nH]c(C3CCCC3)nc2n(CCC)c1=O
Classification: class 0
--
Compound: O=C(O)C1=CCCN(CCON=C(c2ccccc2)c2ccccc2)C1
Classification: class 0
--
Compound: CO/N=C(\C(=O)N[C@@H]1C(=O)N2C(C(=O)O)=C(CSc3nc(=O)c(O)nn3C)CSC12)c1csc(N)n1 (stereo partly specified)
Classification: class 0
--
Compound: CNc1cc(NS(=O)(=O)c2ccc(N)cc2)nc(NC)n1
Classification: class 0

---

- Procedure Text: High Content Imaging Cell-Based qHTS for Inhibitors of the mTORC1 Signaling Pathway in MEF Cells (AID 2667)
- Experimental Parameters: series mostly up to 38.3 µM
Records with an inconclusive call do not appear. Active and inactive are the calls of the source. The call rests on the fitted dose curve; in most records, active means well fitted inhibition curve with a large enough effect; inconclusive means small, poorly fitted or top-dose-only effect, or effect the other way; inactive means no such curve, though single readings can be large or run the other way.
Classes used: Y for active, N for inactive

Molecule: O=C(O)C1CCNCC1
Classification: N

Molecule: C[C@@]1(C2CCCC2)Cc2cc(OCC(=O)O)c(Cl)c(Cl)c2C1=O
Classification: N

Molecule: C=CCNc1ncnc2ccc(Br)cc12
Classification: N

Molecule: Cn1c(=O)c2[nH]c(C3CCCC3)nc2n(C)c1=O
Classification: N

Molecule: CN1CCCC1CCOC(C)(c1ccccc1)c1ccc(Cl)cc1 (stereo unspecified)
Classification: Y

Molecule: COC(=O)C1=C(C)NC(C)=C([N+](=O)[O-])C1c1ccccc1C(F)(F)F (stereo unspecified)
Classification: N

---

- Tested System: Cytochrome P450 2C9 (Homo sapiens)
- Procedure Text: qHTS Assay for Inhibitors and Substrates of Cytochrome P450 2C9 (AID 883); also: nearly all actives have a fitted effect of over 60% in size
- Experimental Parameters: recombinant CYP2C9, luciferin-H luminescence, 60 min; series mostly up to 57.1 µM
Inconclusive results are not listed. Activity calls are given as the source filed them. The call rests on the fitted dose curve; in most records, active means well fitted inhibition curve with a large enough effect; inconclusive means small, poorly fitted or top-dose-only effect; inactive means no such curve, though single readings can be large or run the other way.
Classes used: active, inactive

Compound Smiles: Cc1nc(N=Nc2cc(S(=O)(=O)O)c3cc([N+](=O)[O-])cc(S(=O)(=O)O)c3c2)c(COP(=O)(O)O)c(C=O)c1O
Classification: inactive
--
Compound Smiles: O=[N+]([O-])c1cccc2c(Br)[nH]nc12
Classification: inactive
--
Compound Smiles: CC(=O)N[C@@H](Cc1c[nH]c2ccccc12)C(=O)OCc1cc(C(F)(F)F)cc(C(F)(F)F)c1
Classification: active
--
Compound Smiles: CCCCCCCC/C=C\CCCCCCCC(=O)NCCc1ccc(O)c(O)c1
Classification: active
--
Compound Smiles: CC(=O)NNC(=O)N1Cc2ccccc2Oc2ccc(Cl)cc21
Classification: inactive
--
Compound Smiles: CNC(=O)c1cc2c(cn1)[nH]c1ccccc12
Classification: inactive
--
Compound Smiles: COc1ccc(NC(=O)c2ccc(-c3ccc(-c4noc(C)n4)cc3C)cc2)cc1N1CCN(C)CC1
Classification: active
--
Compound Smiles: C=C1C(=O)O[C@@H]2[C@H]3O[C@]3(C)CCC=C(C)CC[C@@H]12
Classification: inactive
--
Compound Smiles: NC(=O)c1ccccc1
Classification: inactive
--
Compound Smiles: Cc1nc(N=Nc2ccc(C(=O)O)cc2)c(COP(=O)(O)O)c(C=O)c1O
Classification: inactive
--
Compound Smiles: N[C@H](C(=O)O)c1cc(O)cc(O)c1
Classification: inactive
--
Compound Smiles: N#Cc1cc2nc(O)c(O)nc2cc1[N+](=O)[O-]
Classification: inactive
--
Compound Smiles: CCn1c(=O)[nH]c2cc(Cl)c(Cl)cc21
Classification: inactive
--
Compound Smiles: O=C(c1ccc2c(c1)OCCO2)N1CCCCC1
Classification: inactive
--
Compound Smiles: CC[N+](CC)(CC)CC(=O)Nc1c(C)cccc1C
Classification: inactive
--
Compound Smiles: CC(=O)C(C)=O
Classification: inactive
--
Compound Smiles: O=[N+]([O-])c1cccc2cn[nH]c12
Classification: inactive
--
Compound Smiles: NCCS(=O)O
Classification: inactive
--
Compound Smiles: CN[C@H](CC(=O)O)C(=O)O
Classification: inactive
--
Compound Smiles: CCN(CC)CCOC(=O)c1cc(Cl)c(N)cc1OC
Classification: inactive
--
Compound Smiles: O=c1onc2cnc3ccccc3n12
Classification: inactive
--
Compound Smiles: Oc1ccc(Cn2cc[nH]c2=S)cc1
Classification: inactive
--
Compound Smiles: Oc1cc(O)c2c(c1)O[C@H](c1ccc(O)c(O)c1)[C@@H](O)C2
Classification: inactive
--
Compound Smiles: O=C(O)c1ccccc1Nc1cccc(OCc2ccc3ccccc3n2)c1
Classification: active
--
Compound Smiles: CCCc1c(-c2ccc(O)cc2)nn(-c2ccc(O)cc2)c1-c1ccc(O)cc1
Classification: active

---

- Procedure Text: qHTS for Activators of Parkin Expression: LOPAC Validation Assay (NLuc Reporter) (AID 720572;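 also: 0% = DMSO and 100% = positive control compound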)
- Experimental Parameters: Parkin promoter NanoLuc reporter cells, luminescence; series mostly up to 46.1 µM
Results filed as inconclusive are left out. Active and inactive are the calls of the source. Calls follow the shape of the dose curve; as a rule, active = well fitted activation curve with a large enough effect; inconclusive = small, poorly fitted or top-dose-only effect; inactive = flat fitted curve, though single readings scatter.

Compound: C[C@@H](NCCc1ccc(O)cc1)[C@@H](O)c1ccc(O)cc1
outcome: inactive
//
Compound: COc1ccccc1N1CCN(CCCNc2c(C)c(=O)n(C)c(=O)n2C)CC1
outcome: inactive
//
Compound: N[C@H](C(=O)O)c1cc(O)cc(O)c1
outcome: inactive
//
Compound: OC1(c2ccc(Cl)cc2)CCN(Cc2c[nH]c3ccccc23)CC1
outcome: inactive
//
Compound: [Li+]
outcome: inactive
//
Compound: Nc1nc2[nH]c(=O)cnc2c(=O)[nH]1
outcome: inactive
//
Compound: N[C@H](C(=O)O)[C@H]1C[C@@H]1C(=O)O
outcome: inactive
//
Compound: N=C(N)SCCc1cnc[nH]1
outcome: inactive
//
Compound: Cc1ccccc1/C=C/C1=NCCN1
outcome: inactive
//
Compound: Cc1cccc(C2CN(C)CCc3c2cc(O)c(O)c3Cl)c1 (stereo not drawn)
outcome: inactive
//
Compound: CN1Cc2sccc2C(c2ccc(O)c(O)c2)C1 (stereo not drawn)
outcome: inactive
//
Compound: c1ccc2c(c1)CCC[C@H]2Nc1nc2ccccc2[nH]1
outcome: inactive
//
Compound: CCCn1c(=O)c2[nH]c(C3CCCC3)nc2n(CCC)c1=O
outcome: inactive

---

- System: Zika virus NS2B-NS3 protease (unlinked)
- Procedure Text: Optimization of GU AMC qHTS for Zika virus inhibitors: Unlinked NS2B-NS3 protease assay (AID 1347151); also: nearly all actives have a fitted effect of over 80% in size
- Experimental Parameters: recombinant ZIKV NS2B-NS3 protease, fluorogenic AMC substrate; series mostly up to 52.5 µM
Results filed as inconclusive are left out. Activity calls are given as the source filed them. Calls come from the whole dose curve; as a rule, active = well fitted inhibition curve with a large enough effect; inconclusive = small, poorly fitted or top-dose-only effect; inactive = no such curve, though single readings can be large or run the other way.
Classes used: y for active, n for inactive

Compound: NCCCNCCCCNCCCN
Classification: n
//
Compound: Cc1nc2c(OCc3ccccc3)cccn2c1CC#N
Classification: n
//
Compound: Cc1ccc([N+](=O)[O-])cc1S(=O)(=O)N(C)C
Classification: n
//
Compound: CC(N)(Cc1ccc(O)cc1)C(=O)O (stereo not drawn)
Classification: n
//
Compound: Cn1c(=O)c2c(nc(/C=C/c3cccc(Cl)c3)n2C)n(C)c1=O
Classification: y
//
Compound: CN(C)S(=O)(=O)c1ccc2c(c1)/C(=C/c1cc3c([nH]1)CCCC3)C(=O)N2
Classification: n
//
Compound: Nn1nnc2ccccc21
Classification: n
//
Compound: O=C(O)CCC(=O)N1CCCC1C(=O)O (stereo not drawn)
Classification: n
//
Compound: CNC(=O)c1cc2c(cn1)[nH]c1ccccc12
Classification: y
//
Compound: C=CCNc1ncnc2ccc(Br)cc12
Classification: n
//
Compound: CCCCOc1cc(CC2CNC(=O)N2)ccc1OC (stereo not drawn)
Classification: n
//
Compound: CC(C)(CO)Cc1cc(C(C)(C)C)c(O)c(C(C)(C)C)c1
Classification: n
//
Compound: NCCS(=O)O
Classification: n
